activation: recorded values
# test system: UniProt Q8C129
# Sequence (Q8C129 whole entry, looked up): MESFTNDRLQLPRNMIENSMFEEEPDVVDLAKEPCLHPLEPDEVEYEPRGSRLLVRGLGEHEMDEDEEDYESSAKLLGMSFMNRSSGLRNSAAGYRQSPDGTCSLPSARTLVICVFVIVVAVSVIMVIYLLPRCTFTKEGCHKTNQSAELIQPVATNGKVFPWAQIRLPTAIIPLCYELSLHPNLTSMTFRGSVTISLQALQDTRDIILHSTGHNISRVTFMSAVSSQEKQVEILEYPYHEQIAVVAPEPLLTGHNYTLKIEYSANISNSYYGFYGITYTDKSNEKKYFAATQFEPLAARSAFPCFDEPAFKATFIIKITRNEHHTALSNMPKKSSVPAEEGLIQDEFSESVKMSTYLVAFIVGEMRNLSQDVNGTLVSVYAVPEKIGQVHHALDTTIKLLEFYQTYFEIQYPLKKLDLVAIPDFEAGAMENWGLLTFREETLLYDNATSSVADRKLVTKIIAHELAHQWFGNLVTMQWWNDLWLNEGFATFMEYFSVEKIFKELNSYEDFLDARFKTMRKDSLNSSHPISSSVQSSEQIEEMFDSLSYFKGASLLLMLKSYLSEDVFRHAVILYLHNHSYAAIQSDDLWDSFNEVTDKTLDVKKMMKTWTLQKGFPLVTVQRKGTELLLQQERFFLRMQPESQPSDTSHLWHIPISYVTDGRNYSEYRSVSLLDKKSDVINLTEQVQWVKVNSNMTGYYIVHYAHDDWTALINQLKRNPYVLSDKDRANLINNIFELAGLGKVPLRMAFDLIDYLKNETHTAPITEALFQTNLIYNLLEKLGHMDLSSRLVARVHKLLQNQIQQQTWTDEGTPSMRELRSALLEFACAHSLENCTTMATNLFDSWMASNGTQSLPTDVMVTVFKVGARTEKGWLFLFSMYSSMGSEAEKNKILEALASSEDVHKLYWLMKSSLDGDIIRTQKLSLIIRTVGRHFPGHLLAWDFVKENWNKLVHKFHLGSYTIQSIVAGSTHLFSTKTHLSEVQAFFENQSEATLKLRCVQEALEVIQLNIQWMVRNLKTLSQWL
# assay text: IRAP activators, dose response, selectivity assay for ERAP1 modulator project, biochemical, Leu-AMC fluorescence, cherry-picked samples (AID 743339)
# condition set: purified IRAP, Leu-AMC cleavage fluorescence, 1 h; at 11 µM (top of the series)
Number in %, nothing else.

Example results:
{"columns": ["compound", "test system", "measured number"],
 "data": [
  ["Cc1noc(C)c1NC(=O)Nc1ccc2c(c1)C(=O)N([C@H](C)CO)C[C@@H](C)[C@@H](CN(C)Cc1ccc(C(F)(F)F)cc1)OCCCC[C@@H](C)O2", "UniProt Q8C129", -4.93],
  ["C[C@@H]1CCCCO[C@H](CN(C)Cc2ccc(C(=O)O)cc2)[C@@H](C)CN([C@H](C)CO)C(=O)c2cc(NC(=O)Nc3ccc(C(F)(F)F)cc3)ccc2O1", "UniProt Q8C129", 9.92],
  ["O=C(Nc1ccc(C(F)(F)F)cc1)N1[C@@H]2CNC[C@H]1C2c1ccc(-c2ccncc2)cc1 (some centres not stated)", "UniProt Q8C129", 4.27],
  ["COc1ccc(NC(=O)Nc2ccc3c(c2)C(=O)N([C@H](C)CO)C[C@@H](C)[C@@H](CN(C)Cc2ccc(C(=O)O)cc2)OCCCC[C@@H](C)O3)cc1", "UniProt Q8C129", -5.71],
  ["CCn1cc(CN2CCCC(C(=O)Nc3ccc(-c4nc5ccccc5[nH]4)cc3)C2)c(C)n1 (configuration not stated)", "UniProt Q8C129", -5.33]
]}

Record `C[C@H](CO)N1C[C@H](C)[C@H](CN(C)Cc2ccncc2)Oc2c(NC(=O)Nc3ccc(C(F)(F)F)cc3)cccc2C1=O` / UniProt Q8C129, activation recorded as 10.6

Record `C[C@H]1CN([C@@H](C)CO)C(=O)c2cccc(NC(=O)Nc3ccc(C(F)(F)F)cc3)c2O[C@@H]1CN(C)CC1CC1` / UniProt Q8C129, activation recorded as -18.4
